system: ASPACDRAFT_127619 (Aspergillus aculeatus, UniProt A0A1L9WG58)
Sequence (A0A1L9WG58 23-338): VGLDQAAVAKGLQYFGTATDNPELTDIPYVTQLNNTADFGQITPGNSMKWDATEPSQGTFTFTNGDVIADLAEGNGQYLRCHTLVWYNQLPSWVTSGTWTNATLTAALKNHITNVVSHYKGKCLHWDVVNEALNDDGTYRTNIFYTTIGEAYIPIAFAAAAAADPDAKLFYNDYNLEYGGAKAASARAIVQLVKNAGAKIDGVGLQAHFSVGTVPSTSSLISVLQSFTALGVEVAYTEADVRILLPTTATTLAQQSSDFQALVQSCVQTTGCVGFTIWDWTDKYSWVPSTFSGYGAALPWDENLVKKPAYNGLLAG
assay procedure: Competitive ABP labeling by 8 against substrates, recombinant enzyme
property label: IC50 (µM)
Answers are plain numbers, in µM.

Report IC50 for Cc1cc(=O)oc2cc(O[C@@H]3OC[C@@H](O[C@@H]4OC[C@@H](O)[C@H](O)[C@H]4O)[C@H](O)[C@H]3O)ccc12 [4MU-β-D-xylobioside] please.
204
